target: Voltage-dependent L-type calcium channel subunit alpha-1C (Rattus norvegicus); type: functional; note: assay procedure not described here
Sequence (P22002 whole entry): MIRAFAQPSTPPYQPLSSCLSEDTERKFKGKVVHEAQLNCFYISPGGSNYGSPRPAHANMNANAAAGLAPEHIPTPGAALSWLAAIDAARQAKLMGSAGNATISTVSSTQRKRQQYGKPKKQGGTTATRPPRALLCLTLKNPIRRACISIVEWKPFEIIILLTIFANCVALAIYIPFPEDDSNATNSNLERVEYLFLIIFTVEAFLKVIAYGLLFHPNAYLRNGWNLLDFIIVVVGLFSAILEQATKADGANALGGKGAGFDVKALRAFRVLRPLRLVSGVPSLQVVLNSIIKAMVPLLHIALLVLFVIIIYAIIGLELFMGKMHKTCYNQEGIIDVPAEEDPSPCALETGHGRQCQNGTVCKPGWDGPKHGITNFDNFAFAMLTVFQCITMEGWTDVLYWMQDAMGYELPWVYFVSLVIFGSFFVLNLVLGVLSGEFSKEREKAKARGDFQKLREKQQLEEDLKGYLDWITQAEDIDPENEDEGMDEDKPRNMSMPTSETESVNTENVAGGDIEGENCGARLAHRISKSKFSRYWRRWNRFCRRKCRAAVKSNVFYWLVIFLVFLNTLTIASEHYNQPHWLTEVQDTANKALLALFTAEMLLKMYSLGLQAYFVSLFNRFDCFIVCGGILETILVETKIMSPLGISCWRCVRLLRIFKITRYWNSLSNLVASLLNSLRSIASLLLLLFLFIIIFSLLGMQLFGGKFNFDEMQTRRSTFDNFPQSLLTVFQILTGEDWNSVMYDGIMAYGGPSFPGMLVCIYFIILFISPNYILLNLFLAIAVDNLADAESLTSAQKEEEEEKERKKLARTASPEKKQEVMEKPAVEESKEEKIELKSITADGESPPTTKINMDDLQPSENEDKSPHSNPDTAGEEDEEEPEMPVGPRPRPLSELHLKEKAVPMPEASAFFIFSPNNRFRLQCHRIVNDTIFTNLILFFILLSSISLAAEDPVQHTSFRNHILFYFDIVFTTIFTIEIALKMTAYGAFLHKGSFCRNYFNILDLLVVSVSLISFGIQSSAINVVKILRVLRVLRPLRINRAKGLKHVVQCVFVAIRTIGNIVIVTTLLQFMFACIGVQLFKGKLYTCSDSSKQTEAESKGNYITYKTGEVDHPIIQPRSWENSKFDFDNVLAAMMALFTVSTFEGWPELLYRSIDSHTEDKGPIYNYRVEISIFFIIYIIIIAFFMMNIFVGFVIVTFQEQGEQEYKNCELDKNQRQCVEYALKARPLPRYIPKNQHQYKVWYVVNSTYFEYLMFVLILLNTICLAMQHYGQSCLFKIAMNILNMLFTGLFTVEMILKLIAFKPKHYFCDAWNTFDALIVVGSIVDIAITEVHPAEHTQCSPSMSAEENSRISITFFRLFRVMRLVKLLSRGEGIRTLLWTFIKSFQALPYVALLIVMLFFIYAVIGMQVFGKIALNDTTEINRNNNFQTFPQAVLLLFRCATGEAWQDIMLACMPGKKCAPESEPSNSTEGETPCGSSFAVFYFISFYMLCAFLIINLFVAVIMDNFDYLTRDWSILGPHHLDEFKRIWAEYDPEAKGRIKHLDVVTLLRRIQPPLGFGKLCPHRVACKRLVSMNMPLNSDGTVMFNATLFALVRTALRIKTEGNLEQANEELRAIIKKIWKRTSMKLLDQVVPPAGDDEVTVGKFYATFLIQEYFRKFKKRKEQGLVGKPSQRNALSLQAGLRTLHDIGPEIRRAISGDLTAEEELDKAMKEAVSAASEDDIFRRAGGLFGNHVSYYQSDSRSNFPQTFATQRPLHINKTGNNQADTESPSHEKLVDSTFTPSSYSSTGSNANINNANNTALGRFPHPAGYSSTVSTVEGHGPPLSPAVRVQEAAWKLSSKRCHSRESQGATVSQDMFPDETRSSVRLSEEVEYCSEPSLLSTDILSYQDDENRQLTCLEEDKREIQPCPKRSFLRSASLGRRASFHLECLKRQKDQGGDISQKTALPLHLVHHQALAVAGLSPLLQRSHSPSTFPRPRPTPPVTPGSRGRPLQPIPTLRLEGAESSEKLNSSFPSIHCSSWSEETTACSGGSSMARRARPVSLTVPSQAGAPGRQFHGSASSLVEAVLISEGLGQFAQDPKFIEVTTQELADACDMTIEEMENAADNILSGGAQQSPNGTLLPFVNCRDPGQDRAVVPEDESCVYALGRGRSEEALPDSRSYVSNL
test readout: AC50

molecule="CC(=O)O[C@H]1C[C@@H]2CC[C@@H]3[C@H](CC[C@@]4(C)[C@H]3C[C@H]([N+]3(C)CCCCC3)[C@@H]4OC(C)=O)[C@@]2(C)C[C@@H]1[N+]1(C)CCCCC1 [PANCURONIUM]" test_readout=AC50 endpoint_result="> 10 µM"
molecule=N#Cc1ccccc1-c1cc(-c2ccccn2)cn(-c2ccccc2)c1=O test_readout=AC50 endpoint_result="> 30 µM"
molecule="CC(=O)/N=c1/sc(S(N)(=O)=O)nn1C [METHAZOLAMIDE]" test_readout=AC50 endpoint_result="> 10 µM"
molecule="O=C(O)CSCC(=O)NC1CCSC1=O (stereo not drawn) [ERDOSTEINE]" test_readout=AC50 endpoint_result="> 30 µM"
molecule="CC(C)(C)NC[C@H](O)COc1nsnc1N1CCOCC1 [TIMOLOL]" test_readout=AC50 endpoint_result="> 30 µM"
molecule="CCN(CC)C(=O)C1(c2ccccc2)CC1CN (stereo not drawn)" test_readout=AC50 endpoint_result="> 30 µM"
molecule="N=C(N)NCCCCCCC(=O)NC(O)C(=O)NCCCCNCCCN (stereo not drawn)" test_readout=AC50 endpoint_result="> 30 µM"
molecule="O=C(CCCN1CCC(n2c(O)nc3ccccc32)CC1)c1ccc(F)cc1 [BENPERIDOL]" test_readout=AC50 endpoint_result="> 30 µM"
molecule="C[C@H]1C[C@H]2[C@@H]3CCC4=CC(=O)C=C[C@]4(C)[C@@]3(Cl)[C@@H](O)C[C@]2(C)[C@@]1(O)C(=O)CO [BECLOMETHASONE]" test_readout=AC50 endpoint_result="> 10 µM"
molecule="[H]/N=C(/N)N[C@H]1[C@H](O)[C@@H](O)[C@H](O[C@@H]2O[C@@H](C)[C@](O)(C=O)[C@H]2O[C@@H]2O[C@@H](CO)[C@H](O)[C@@H](O)[C@@H]2NC)[C@@H](N/C(N)=N\\[H])[C@@H]1O [STREPTOMYCIN]" test_readout=AC50 endpoint_result="> 30 µM"
molecule="Cc1cc(CC(=O)O)n(C)c1C(=O)c1ccc(Cl)cc1 [ZOMEPIRAC]" test_readout=AC50 endpoint_result="> 30 µM"
molecule="CN1C[C@H](C(=O)N[C@]2(C)O[C@@]3(O)[C@@H]4CCCN4C(=O)[C@H](Cc4ccccc4)N3C2=O)C[C@@H]2c3cccc4[nH]cc(c34)C[C@H]21 [DIHYDROERGOTAMINE]" test_readout=AC50 endpoint_result="> 10 µM"
molecule="CCc1oc2ccccc2c1C(=O)c1cc(Br)c(O)c(Br)c1 [BENZBROMARONE]" test_readout=AC50 endpoint_result="> 10 µM"
molecule="CC1(C)S[C@@H]2[C@H](NC(=O)[C@H](N)c3ccc(O)cc3)C(=O)N2[C@H]1C(=O)O [AMOXICILLIN]" test_readout=AC50 endpoint_result="> 30 µM"
molecule="NCCCC(O)(P(=O)(O)O)P(=O)(O)O [ALENDRONIC ACID]" test_readout=AC50 endpoint_result="> 10 µM"
molecule="CC(=O)Nc1c(I)c(C(=O)N[C@H]2C(O)O[C@H](CO)[C@@H](O)[C@@H]2O)c(I)c(N(C)C(C)=O)c1I (stereo partly drawn) [METRIZAMIDE]" test_readout=AC50 endpoint_result="> 10 µM"
molecule="CC(=O)OCC(CCn1cnc2cnc(N)nc21)COC(C)=O [FAMCICLOVIR]" test_readout=AC50 endpoint_result="> 10 µM"
molecule="CNC[C@H](O)c1cccc(O)c1 [PHENYLEPHRINE]" test_readout=AC50 endpoint_result="> 10 µM"
molecule="O=C(O)c1ccccc1Nc1cccc(C(F)(F)F)c1 [FLUFENAMIC ACID]" test_readout=AC50 endpoint_result="> 10 µM"
molecule="NC(=O)CCC/N=C(\\c1ccc(Cl)cc1)c1cc(F)ccc1O [PROGABIDE]" test_readout=AC50 endpoint_result="> 10 µM"
molecule="CCOC(=O)NNc1ccc(N(CC)CC(C)O)nn1 (stereo not drawn) [CADRALAZINE]" test_readout=AC50 endpoint_result="> 30 µM"
molecule="CC(=O)S[C@@H]1CC2=CC(=O)CC[C@]2(C)[C@H]2CC[C@@]3(C)[C@@H](CC[C@@]34CCC(=O)O4)[C@H]12 [SPIRONOLACTONE]" test_readout=AC50 endpoint_result="> 10 µM"
molecule="Nc1nc2c(c(=O)[nH]1)N(C=O)C(CNc1ccc(C(=O)N[C@@H](CCC(=O)O)C(=O)O)cc1)CN2 (stereo partly drawn) [LEUCOVORIN]" test_readout=AC50 endpoint_result="> 30 µM"
molecule="O=C1CN2Cc3c(ccc(Cl)c3Cl)N=C2N1 [ANAGRELIDE]" test_readout=AC50 endpoint_result="> 10 µM"
molecule="OCCN1CCN(CC/C=C2/c3ccccc3Sc3ccc(Cl)cc32)CC1 [ZUCLOPENTHIXOL]" test_readout=AC50 endpoint_result="> 10 µM"
molecule="C#C[C@]1(O)CC[C@H]2[C@@H]3CCc4cc(OC)ccc4[C@H]3CC[C@@]21C [MESTRANOL]" test_readout=AC50 endpoint_result="> 10 µM"
molecule="CNCC[C@@H](Oc1ccccc1C)c1ccccc1 [ATOMOXETINE]" test_readout=AC50 endpoint_result="> 30 µM"
molecule="[H]/N=C(\\N/C(=N/[H])NCCCCCCNC(=N)NC(=N)Nc1ccc(Cl)cc1)Nc1ccc(Cl)cc1 [CHLORHEXIDINE]" test_readout=AC50 endpoint_result="> 10 µM"
molecule="O=C1CN=C(c2ccccc2)c2cc(Cl)ccc2N1 [NORDAZEPAM]" test_readout=AC50 endpoint_result="> 10 µM"
molecule="COc1ccnc(C[S+]([O-])c2nc3ccc(OC(F)F)cc3[nH]2)c1OC (stereo not drawn) [PANTOPRAZOLE]" test_readout=AC50 endpoint_result="> 10 µM"
molecule="CNCCCC1c2ccccc2C=Cc2ccccc21 [PROTRIPTYLINE]" test_readout=AC50 endpoint_result="> 10 µM"
molecule="COc1cccc2c1C(=O)c1c(O)c3c(c(O)c1C2=O)C[C@@](O)(C(C)=O)C[C@@H]3O[C@H]1C[C@H](N)[C@H](O)[C@H](C)O1 [DAUNORUBICIN]" test_readout=AC50 endpoint_result="> 30 µM"
molecule="CC(C)(C)NCC(O)c1cc(Cl)c(N)c(Cl)c1 (stereo not drawn) [CLENBUTEROL]" test_readout=AC50 endpoint_result="> 30 µM"

---

Here we list compounds with their recorded AC50 when tested on UniProt:P23975.
Sequence (P23975 whole entry): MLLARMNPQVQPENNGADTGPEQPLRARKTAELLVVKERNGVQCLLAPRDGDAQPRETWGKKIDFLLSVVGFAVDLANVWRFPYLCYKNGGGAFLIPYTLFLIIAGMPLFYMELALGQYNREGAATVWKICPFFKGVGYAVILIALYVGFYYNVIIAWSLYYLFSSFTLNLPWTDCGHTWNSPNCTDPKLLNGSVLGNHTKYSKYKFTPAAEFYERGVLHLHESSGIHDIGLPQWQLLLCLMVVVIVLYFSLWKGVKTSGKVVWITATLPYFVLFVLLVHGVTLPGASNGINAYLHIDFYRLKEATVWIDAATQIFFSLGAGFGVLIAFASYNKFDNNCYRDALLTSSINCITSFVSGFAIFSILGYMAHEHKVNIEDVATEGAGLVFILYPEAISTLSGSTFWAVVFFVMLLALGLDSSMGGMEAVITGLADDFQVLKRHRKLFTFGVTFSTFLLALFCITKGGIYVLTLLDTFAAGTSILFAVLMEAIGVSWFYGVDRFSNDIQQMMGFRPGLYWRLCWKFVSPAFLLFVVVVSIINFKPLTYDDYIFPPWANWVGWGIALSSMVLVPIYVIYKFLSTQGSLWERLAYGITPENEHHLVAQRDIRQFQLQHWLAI
test readout: AC50

compound="CC(=O)OCC[N+](C)(C)C [ACETYLCHOLINE]" endpoint_result="> 30 µM"
compound="COCCCOc1ccnc(C[S+]([O-])c2nc3ccccc3[nH]2)c1C (stereo not given) [RABEPRAZOLE]" endpoint_result="17.9 µM"
compound="CO/N=C(\\C(=O)N[C@@H]1C(=O)N2C(C(=O)[O-])=C(C[n+]3cccc4c3CCC4)CS[C@H]12)c1csc(N)n1 [CEFPIROME]" endpoint_result="> 30 µM"
compound="CCCCCCCCCCC[C@@H](C[C@@H]1OC(=O)[C@H]1CCCCCC)OC(=O)[C@H](CC(C)C)NC=O [ORLISTAT]" endpoint_result="> 30 µM"
compound="C[n+]1ccccc1/C=N/O [PRALIDOXIME]" endpoint_result="> 30 µM"

---

Here we list compounds with their recorded AC50 when tested on UniProt P28335.
Sequence (P28335 whole entry): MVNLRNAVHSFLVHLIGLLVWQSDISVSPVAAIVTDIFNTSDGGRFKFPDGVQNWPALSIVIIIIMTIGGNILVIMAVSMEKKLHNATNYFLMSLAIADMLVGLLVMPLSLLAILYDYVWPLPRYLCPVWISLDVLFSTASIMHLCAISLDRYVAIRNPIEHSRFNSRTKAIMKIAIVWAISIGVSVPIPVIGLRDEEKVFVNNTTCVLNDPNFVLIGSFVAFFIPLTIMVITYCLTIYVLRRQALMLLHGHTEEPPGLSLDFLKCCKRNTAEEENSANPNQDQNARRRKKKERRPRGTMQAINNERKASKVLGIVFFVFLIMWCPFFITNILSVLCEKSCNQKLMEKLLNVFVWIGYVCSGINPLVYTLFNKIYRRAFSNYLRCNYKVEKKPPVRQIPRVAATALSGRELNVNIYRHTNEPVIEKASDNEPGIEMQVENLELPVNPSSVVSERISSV
test readout: AC50

compound=CN(C)c1cc(CNCC(C)(C)C)c(O)c2c1C[C@H]1C[C@H]3[C@H](N(C)C)C(O)=C(C(N)=O)C(=O)[C@@]3(O)C(O)=C1C2=O test_readout=AC50 endpoint_result="> 30 µM"
compound="Clc1ccc(C(Cn2ccnc2)OCc2ccc(Sc3ccccc3)cc2)c(Cl)c1 (configuration not stated)" test_readout=AC50 endpoint_result="> 30 µM"
compound=CC(=O)c1ccc2c(c1)N(CCCN1CCC(CCO)CC1)c1ccccc1S2 test_readout=AC50 endpoint_result="11 µM"
compound=CC(=N)N1CC[C@H](SC2=C(C(=O)O)N3C(=O)[C@H]([C@@H](C)O)[C@H]3C2)C1 test_readout=AC50 endpoint_result="> 300 µM"
compound="COCCOC(=O)C1=C(C)NC(C)=C(C(=O)OC/C=C/c2ccccc2)C1c1cccc([N+](=O)[O-])c1 (configuration not stated)" test_readout=AC50 endpoint_result="> 30 µM"
compound=CC1(C)S[C@@H]2[C@H](NC(=O)[C@H](N)c3ccc(O)cc3)C(=O)N2[C@H]1C(=O)O test_readout=AC50 endpoint_result="> 30 µM"
compound="CC(=O)/N=c1/sc(S(N)(=O)=O)nn1C [METHAZOLAMIDE]" test_readout=AC50 endpoint_result="> 30 µM"
compound=CCOC(=O)Nc1ccc2c(c1)N(C(=O)CCN1CCOCC1)c1ccccc1S2 test_readout=AC50 endpoint_result="> 30 µM"
compound=CC(C)N(CCCCOCC(=O)NS(C)(=O)=O)c1cnc(-c2ccccc2)c(-c2ccccc2)n1 test_readout=AC50 endpoint_result="> 30 µM"
compound=CCn1cc(C(=O)O)c(=O)c2cc(F)c(N3CCN(C)CC3)cc21 test_readout=AC50 endpoint_result="> 30 µM"
compound=O=C(CCCN1CCC(n2c(O)nc3ccccc32)CC1)c1ccc(F)cc1 test_readout=AC50 endpoint_result="13 µM"
compound="Cc1cc(CC(=O)O)n(C)c1C(=O)c1ccc(Cl)cc1 [ZOMEPIRAC]" test_readout=AC50 endpoint_result="> 30 µM"
compound=CCCC[C@H](C)C[C@H](O)/C=C/[C@H]1[C@H](O)CC(=O)[C@@H]1CCCC/C=C/C(=O)O test_readout=AC50 endpoint_result="> 30 µM"
compound="O=C1Nc2ccc(Cl)cc2C(c2ccccc2)=NC1O (configuration not stated)" test_readout=AC50 endpoint_result="> 30 µM"
compound=Cc1ccc(=O)n(-c2ccccc2)c1 test_readout=AC50 endpoint_result="> 30 µM"
compound=CC(=O)S[C@@H]1CC2=CC(=O)CC[C@]2(C)[C@H]2CC[C@@]3(C)[C@@H](CC[C@@]34CCC(=O)O4)[C@H]12 test_readout=AC50 endpoint_result="> 30 µM"
compound="CC(CCc1ccccc1)NC(C)C(O)c1ccc(O)cc1 (configuration not stated)" test_readout=AC50 endpoint_result="> 30 µM"
